Target: SARS-CoV-2 protein 7a ectodomain (protein 7a ECD) (Severe acute respiratory syndrome coronavirus 2)
Sequence (P0DTC7 16-95): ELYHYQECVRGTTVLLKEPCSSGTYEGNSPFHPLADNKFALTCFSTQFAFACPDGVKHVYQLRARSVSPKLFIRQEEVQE
pKd: −log10 of the molar value.

compound | pKd
C=CC1=C(C)C2=Cc3c(C=C)c(C)c4[n]3[Fe]([Cl])[n]3c(c(C)c(CCC(=O)O)c3=CC3=NC(=C4)C(C)=C3CCC(=O)O)=CC1=N2 [heme] | 6.33
